systemUnderTest: Serine/threonine-protein kinase pim-1 (Homo sapiens)
test: Inhibition of Pim1 after 15 mins by scintillation counting-based competition assay in presence of 100 uM [gamma33P]ATP
quantityMeasured: IC50 (nM)

- structureSmiles: "O=C(O)c1ccc(-c2cnc3ccc(NCC4CC4)nn23)cc1"
  quantityMeasured: "IC50"
  endpointValue: 120

---

test: Permeability from basolateral to apical side of human Caco-2 cells at 50 uM by LC/MS-MS analysis
Format: ADME, cell-based
particulars: read-out: permeability

- structureSmiles: "CN1CCCN(c2cncc(-c3cccc(/C=C/C(=O)O)c3)n2)CC1"
  Papp B→A at 50 µM: "30.1 nm/s"
